# ASSAY_NAME: Pharmacokinetics in mice, IV and PO
# Type: in vivo
# CONDITIONS_USED: mouse, plasma, 10 mg/kg; male ICR (CD-1) mice, PO 10 mpk
REPORTED_PROPERTY: Tmax (h)
Give the quantity in h, number only.

Q: For the molecule `COc1ccc(C(=O)N(CC(C)(C)CCCCCCCCCCCCCCCCCC(=O)NCC[N+](C)(CCCC(=O)NCCN)CCCC(=O)NCCN)c2cccc(C)n2)c(N2CCC(COc3cc([C@@H](CC(=O)O)C4CC4)ccn3)CC2)c1` , what Tmax is on record?
Result: 6.7

* * *

# ASSAY_NAME: Pharmacokinetics in mice, IV and PO
# Format: in vivo
# CONDITIONS_USED: mouse, 1 mg/kg; male ICR (CD-1) mice, IV 1 mpk, plasma
REPORTED_PROPERTY: AUC (µM·h)
Report as a plain number; the unit µM·h is understood.

Q: Value lookup for AUC; key = `COc1ccc(C(=O)N(CC(C)(C)CCCCCCCCCCCCCCCCCC(=O)NCC[N+](C)(CCCC(=O)NCCN)CCCC(=O)NCCN)c2cccc(C)n2)c(N2CCC(COc3cc([C@@H](CC(=O)O)C4CC4)ccn3)CC2)c1`
Result: 104
